experiment: Pharmacokinetic analysis of compounds in rats; format: in vivo, SD rats; details: SD, rat, in vivo, po
Metric: bioavailability (%)
Answer format: numeric, % implied, no suffix.

IN: Which bioavailability is reported for this compound? C[C@H](c1cc(F)c2c(c1NC(=O)N[S@@](=N)(=O)c1cc(C(C)(C)O)co1)CCC2)C1CC1 (single isomer, unassigned) [Compound 44-2]
OUT: 89.1

IN: Entry to check: CC(C)(O)c1coc(S(=O)(=O)NC(=O)Nc2c3c(cc4c2CCC4)CCC3)c1 [Control 3, reference compound]
OUT: 36.4

IN: Entry to check: C[C@@H](c1cc(F)c2c(c1NC(=O)N[S@@](=N)(=O)c1cc(C(C)(C)O)co1)CCC2)C1CC1 (single isomer, unassigned) [Compound 42-2]
OUT: 87.2
